Experiment: physchem
Conditions: aqueous, pH 4
Description: Aqueous solubility at pH 4.0
Returns Satisfied if the recorded solubility is greater than or equal to 50 µg/mL, and Not satisfied otherwise.

These recorded examples may help you get a feel for the data.
Compound structure | Discrete label
CN1CC(=O)Nc2ncc(/C=C/C(=O)N(C)Cc3cc4ccccc4n3C)cc2C1 | Satisfied
Cc1c(CN(C)C(=O)/C=C/c2cnc3c(c2)CNCCN3)sc2ccccc12 | Satisfied
Cc1c(CN(C)C(=O)/C=C/c2cnc3c(c2)CNC(=O)CCN3)oc2ccccc12 | Not satisfied
Cc1c(CN(C)C(=O)/C=C/c2cnc3c(c2)NCCC(=O)N3)oc2ccccc12 | Not satisfied

Okay, next one:
Query: hey, is solubility for this one >= 50 µg/mL? Cc1c(CN(C)C(=O)/C=C/c2cnc3c(c2)NCCC(=O)N3)[nH]c2ccccc12
Reply: Not satisfied
